Target: human vasopressin V1a receptor (Homo sapiens, UniProt P37288)
Sequence (P37288 whole entry): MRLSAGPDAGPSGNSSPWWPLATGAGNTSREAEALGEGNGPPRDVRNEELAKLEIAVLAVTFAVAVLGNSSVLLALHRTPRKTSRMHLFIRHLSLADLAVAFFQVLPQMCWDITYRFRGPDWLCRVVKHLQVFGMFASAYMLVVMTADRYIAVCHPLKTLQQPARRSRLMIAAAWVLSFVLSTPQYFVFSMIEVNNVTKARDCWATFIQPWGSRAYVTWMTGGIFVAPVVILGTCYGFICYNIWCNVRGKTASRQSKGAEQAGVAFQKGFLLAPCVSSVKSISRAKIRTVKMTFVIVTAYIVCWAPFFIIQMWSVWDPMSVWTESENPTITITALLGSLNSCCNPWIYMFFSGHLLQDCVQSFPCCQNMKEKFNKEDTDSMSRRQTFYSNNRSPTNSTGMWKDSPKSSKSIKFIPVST
Assay: Vasopressin V1a receptor binding assay
Settings: selectivity quotient, human V1a versus human V1b
Structures can show the parent of a compound that is named as a salt.
PROPERTY_NAME: Ki(h-V1a)/Ki(h-V1b)*

{"columns": ["COMPOUND", "STUDY_SYSTEM", "RESULT"],
 "data": [
  ["CCOc1ncccc1C1(OC(=O)N2CCC(N3CCNCC3)CC2)C(=O)N(S(=O)(=O)c2ccc(OC)cc2OC)c2ccc(C#N)cc21 (stereo not drawn) [Example 55, bis(trifluoroacetic acid) salt]", "human vasopressin V1a receptor (Homo sapiens, UniProt P37288)", "++ (>25-75)"],
  ["CCOc1ncccc1C1(OC(=O)N2CCN(C3CCNCC3)CC2)C(=O)N(S(=O)(=O)c2ccccc2)c2ccc(C#N)cc21 (racemic) [Example 28, bis(trifluoroacetic acid) salt]", "human vasopressin V1a receptor (Homo sapiens, UniProt P37288)", "++ (>25-75)"]
]}

====

Molecular target: human vasopressin V1a receptor (Homo sapiens)
Experiment: Vasopressin V1a receptor binding assay
Settings: selectivity quotient, human V1a versus human V1b
Where a name gives a salt, the structure may show the parent alone.
PROPERTY_NAME: Ki(h-V1a)/Ki(h-V1b)*

Study these solved cases before continuing.
{"columns": ["COMPOUND", "Ki(h-V1a)/Ki(h-V1b)*"],
 "data": [
  ["CCOc1ncccc1C1(OC(=O)N2CCC(N3CCN(C)CC3)CC2)C(=O)N(S(=O)(=O)c2ccccc2OC)c2ccc(C#N)cc21 (racemic)", "++ (>25-75)"],
  ["CCOc1ncccc1C1(OC(=O)N2CCN(C3CCN(C)CC3)CC2)C(=O)N(S(=O)(=O)c2ccccc2)c2ccc(C#N)cc21 (single isomer, unassigned; (-)) [Example 4B]", "+++ (>75)"],
  ["CCOc1ncccc1C1(OC(=O)N2CCN(C3CCN(C)CC3)CC2)C(=O)N(S(=O)(=O)c2ccccc2OC)c2ccc(C#N)cc21 (racemic) [Example 2]", "+++ (>75)"],
  ["CCOc1ncccc1C1(OC(=O)N2CCN(C3CCN(C)CC3)CC2)C(=O)N(S(=O)(=O)c2ccccc2OC)c2ccc(C#N)cc21 (single isomer, unassigned; (-)) [Example 2B]", "+++ (>75)"],
  ["CCOc1ncccc1C1(OC(=O)N2CCN(C3CCN(C)CC3)CC2)C(=O)N(S(=O)(=O)c2ccc(OC)cc2)c2ccc(C#N)cc21 (racemic)", "+++ (>75)"]
]}

Below are 4 compounds. Give each one its Ki(h-V1a)/Ki(h-V1b)*.
1. CCOc1ncccc1C1(OC(=O)N2CCN(C3CCN(C)CC3)CC2)C(=O)N(S(=O)(=O)c2ccccc2)c2ccc(C#N)cc21 (racemic) [Example 4]
2. CCOc1ncccc1C1(OC(=O)N2CCN(C3CCN(C)CC3)CC2)C(=O)N(S(=O)(=O)c2ccc(OC)cc2OC)c2ccc(C#N)cc21 (racemic)
3. CCOc1ncccc1C1(OC(=O)N2CCN(C3CCNCC3)CC2)C(=O)N(S(=O)(=O)c2ccc(OC)cc2OC)c2ccc(C#N)cc21 (racemic) [Example 25, bis(trifluoroacetic acid) salt]
4. CCOc1ncccc1C1(OC(=O)N2CCC(N3CCN(CC)CC3)CC2)C(=O)N(S(=O)(=O)c2ccccc2)c2ccc(C#N)cc21 (racemic)

Data returned:
+++ (>75)
+++ (>75)
+++ (>75)
++ (>25-75)

Count: 2. Required value per item: Ki(h-V1a)/Ki(h-V1b)*.
1. CCOc1ncccc1C1(OC(=O)N2CCN(C3CCN(CC)CC3)CC2)C(=O)N(S(=O)(=O)c2ccccc2)c2ccc(C#N)cc21.O=C(O)C(F)(F)F (racemic)
2. CCOc1ncccc1C1(OC(=O)N2CCC(N3CCN(C)CC3)CC2)C(=O)N(S(=O)(=O)c2ccc(OC)cc2)c2ccc(C#N)cc21 (racemic)

Data returned:
1: +++ (>75); 2: ++ (>25-75)
